experiment: Biodistribution in BDL rats with and without excess cold compound; format: in vivo; conditions: male, Sprague Dawley, rat, spleen, iv, total radioactivity, BDL rats, 15 days post-op, 1 hour post-injection, 10K-fold excess cold Compound 8; read-out: Activity in Spleen, Mean
Numbered stars: 1 amine (or outer) side, 2 acyl side, 3 side chain; on linkers, the order of the positions; unused ones are H or OH. Bridge positions count the residues as written; N and C are the ends. Side chains are listed from the residue outwards. Peptide text beside a SMILES is read from it. * marks the point of attachment. X1 = C/C(=N\O)C(C)(C)NCCC(CCNC(C)(C)/C(C)=N/O)CCN*; Glutaryl = O=C(CCCC(=O)[*:2])[*:1]; X2 = NC(=O)COCC(=O)NCCOCCOCCOCCN*
Readout type: tissue uptake dose at 1 h (%ID)
Give the quantity in %ID, number only.

Given C/C(=N\O)C(C)(C)NCCC(CCNC(=O)CCCC(=O)NCCCC[C@@H]1NC(=O)CSC[C@@H](C(=O)NCCOCCOCCOCCNC(=O)COCC(N)=O)NC(=O)[C@H](Cc2ccccc2)NC(=O)[C@@H]2CSSC[C@H](NC1=O)C(=O)N[C@@H](CCCNC(=N)N)C(=O)NCC(=O)N[C@@H](CC(=O)O)C(=O)N2)CCNC(C)(C)/C(C)=N/O (stereo partly shown) [Compound 8] ({CH2CO}-K([Glutaryl-X1])CRGDCFC-X2; disulfide 2-6; thioether N-8) , state its recorded tissue uptake dose at 1 h. 0.52

====

assay: Biodistribution in BDL rats with and without excess cold compound; assay type: in vivo; conditions: male, Sprague Dawley, rat, carcass, iv, total radioactivity, BDL rats, 15 days post-op, 1 hour post-injection, no excess; read-out: Activity in Carcass, Mean
Numbered stars: 1 amine (or outer) side, 2 acyl side, 3 side chain; on linkers, the order of the positions; unused ones are H or OH. Bridge positions count the residues as written; N and C are the ends. Side chains are listed from the residue outwards. Peptide text beside a SMILES is read from it. * marks the point of attachment. X1 = C/C(=N\O)C(C)(C)NCCC(CCNC(C)(C)/C(C)=N/O)CCN*; Glutaryl = O=C(CCCC(=O)[*:2])[*:1]; X2 = NC(=O)COCC(=O)NCCOCCOCCOCCN*
Readout type: tissue uptake dose at 1 h
Number first, unit second: that is the form wanted.

Given C/C(=N\O)C(C)(C)NCCC(CCNC(=O)CCCC(=O)NCCCC[C@@H]1NC(=O)CSC[C@@H](C(=O)NCCOCCOCCOCCNC(=O)COCC(N)=O)NC(=O)[C@H](Cc2ccccc2)NC(=O)[C@@H]2CSSC[C@H](NC1=O)C(=O)N[C@@H](CCCNC(=N)N)C(=O)NCC(=O)N[C@@H](CC(=O)O)C(=O)N2)CCNC(C)(C)/C(C)=N/O (stereo partly shown) [Compound 8] ({CH2CO}-K([Glutaryl-X1])CRGDCFC-X2; disulfide 2-6; thioether N-8) , state its recorded tissue uptake dose at 1 h. 4.36 %ID
